As an illustration, consider measured IC50 for molecules on Alkaline phosphatase, tissue-nonspecific isozyme (Homo sapiens, UniProt P05186).
Sequence (P05186 whole entry): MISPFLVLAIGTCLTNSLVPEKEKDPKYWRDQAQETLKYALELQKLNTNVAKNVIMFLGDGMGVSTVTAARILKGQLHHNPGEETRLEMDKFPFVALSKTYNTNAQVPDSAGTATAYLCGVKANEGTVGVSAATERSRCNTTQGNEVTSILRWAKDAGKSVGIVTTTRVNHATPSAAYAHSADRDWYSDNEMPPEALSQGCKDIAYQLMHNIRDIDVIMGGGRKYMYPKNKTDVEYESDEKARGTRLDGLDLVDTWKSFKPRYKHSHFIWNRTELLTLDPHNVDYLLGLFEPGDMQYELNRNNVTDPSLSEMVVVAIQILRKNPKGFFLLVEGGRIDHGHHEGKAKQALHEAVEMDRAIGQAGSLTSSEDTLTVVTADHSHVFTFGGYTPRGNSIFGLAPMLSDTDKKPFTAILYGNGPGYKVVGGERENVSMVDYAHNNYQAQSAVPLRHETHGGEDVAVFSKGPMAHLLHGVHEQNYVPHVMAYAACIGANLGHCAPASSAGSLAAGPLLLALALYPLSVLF
One number for each entry, in µM.

CCOC1=CC(=Cc2c(C)[nH]oc2=O)C=C(Br)C1=O	38.1

# ---- query molecule ----
Prompt line: Quick one: IC50 for `Cc1c(C(=O)NN=Cc2ccc(O)cc2O)[nH][nH]c1=O` ?
Response line: 7.32
